# Experiment: Cmin in Sprague-Dawley rat in fed state at 0.3 mg, iv after 5 mins
# Assay type: ADME, organism-based
# Reported conditions: in vivo, read-out: Cmin
Measurement type: concentration at 5 min (ng/mL)
// units = ng/mL; emit number, no label

Requested read-out: concentration at 5 min. Entry: Cc1ncc2n1C(=O)N(C1CCN(C(=O)CCS(=O)(=O)c3ccc4cc(Cl)ccc4c3)CC1)C2
291

* * *

Listed here: items and their measured logD.
# Experiment: physchem
# Reported conditions: buffer, pH 7.4
Lab note: record just the number, no unit beside it.

// known answers, use as guide
{"Item smiles": "Cc1nccn1CCC1CCN(C(=O)CCS(=O)(=O)c2ccc3cc(Cl)ccc3c2)CC1", "Reported measurement": 2.2}
{"Item smiles": "Cc1ncc2n1C(=O)N(N1CCN(C(=O)CCS(=O)(=O)c3ccc4cc(Cl)ccc4c3)CC1)C2", "Reported measurement": 2.1}
{"Item smiles": "Cn1cncc1C1CCN(C(=O)CCS(=O)(=O)c2ccc3cc(Cl)ccc3c2)CC1", "Reported measurement": 2}
{"Item smiles": "O=C(CCS(=O)(=O)c1ccc2cc(Cl)ccc2c1)N1CCC(c2cnc[nH]2)CC1", "Reported measurement": 2}
{"Item smiles": "O=C(CCS(=O)(=O)c1ccc2cc(Cl)ccc2c1)N1CCC(c2cnc3n2CCCC3)CC1", "Reported measurement": 2.2}

Sample Cc1ncc2n1C(=O)N(C1CCN(C(=O)CCS(=O)(=O)c3ccc4cc(Cl)ccc4c3)CC1)C2 — what was its logD?
2.3

Need logD of O=C(CCS(=O)(=O)c1ccc2cc(Cl)ccc2c1)N1CCC(c2cnc3ccccn23)CC1 , thanks.
2.5

Look at this compound and give its reported logD. Cc1nc(C)n2c1CN(C1CCN(C(=O)CCS(=O)(=O)c3ccc4cc(Cl)ccc4c3)CC1)C2=O
2.5

// query logD value for entry Cc1ncc(C2CCN(C(=O)CCS(=O)(=O)c3ccc4cc(Cl)ccc4c3)CC2)[nH]1
2

* * *

# Experiment: AUC (0 to 24 hrs) in cynomolgus monkey in fasted state at 3 mg/kg, po
# Format: ADME, organism-based, Macaca fascicularis
# Set-up: time < 24 hr, dose 3 mg/kg, route oral
# Reported conditions: plasma
Measurement type: AUC(0-t) at 24 h (ng·h/mL)
Report only the number, with the unit ng·h/mL understood.

GET /values?readout=AUC(0-t) at 24 h&item= Cc1ncc2n1C(=O)N(C1CCN(C(=O)CCS(=O)(=O)c3ccc4cc(Cl)ccc4c3)CC1)C2
2120

* * *

# Measured on: Plasminogen (Homo sapiens)
# Sequence (P00747 97-580 limits assumed): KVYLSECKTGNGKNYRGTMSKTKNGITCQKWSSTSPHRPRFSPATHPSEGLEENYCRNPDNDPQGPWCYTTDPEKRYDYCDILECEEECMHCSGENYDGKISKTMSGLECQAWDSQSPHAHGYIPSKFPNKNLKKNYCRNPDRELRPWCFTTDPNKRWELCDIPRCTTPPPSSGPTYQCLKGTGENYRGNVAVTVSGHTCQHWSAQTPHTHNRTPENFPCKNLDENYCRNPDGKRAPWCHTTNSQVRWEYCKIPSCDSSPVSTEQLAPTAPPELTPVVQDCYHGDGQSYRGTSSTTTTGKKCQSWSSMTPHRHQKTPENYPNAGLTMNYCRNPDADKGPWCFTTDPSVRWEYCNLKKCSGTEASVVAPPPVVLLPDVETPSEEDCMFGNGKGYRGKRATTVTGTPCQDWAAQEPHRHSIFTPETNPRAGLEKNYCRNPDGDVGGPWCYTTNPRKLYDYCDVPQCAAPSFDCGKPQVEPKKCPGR
# Sequence (P00747 581-810 limits assumed): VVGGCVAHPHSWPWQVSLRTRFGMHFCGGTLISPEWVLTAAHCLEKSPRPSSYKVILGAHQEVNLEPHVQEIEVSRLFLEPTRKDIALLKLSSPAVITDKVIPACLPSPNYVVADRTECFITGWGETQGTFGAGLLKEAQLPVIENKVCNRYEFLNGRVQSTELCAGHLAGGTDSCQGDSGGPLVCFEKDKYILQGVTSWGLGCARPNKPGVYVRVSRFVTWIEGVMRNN
pKi: −log10 of the molar value.
Measurement type: pKi

# value lookup — system Plasminogen (Homo sapiens), readout pKi, item Cc1ncc2n1C(=O)N(C1CCN(C(=O)CCS(=O)(=O)c3ccc4cc(Cl)ccc4c3)CC1)C2
< 4.22

* * *

# Experiment: Tmax in Sprague-Dawley rat in fed state at 3 mg/kg, po
# Format: ADME, organism-based
# Parameters: dose 3 mg/kg, route oral
# Reported conditions: in vivo
Measurement type: Tmax
The reply should read as a number followed by its unit.

Recorded Tmax of Cc1ncc2n1C(=O)N(C1CCN(C(=O)CCS(=O)(=O)c3ccc4cc(Cl)ccc4c3)CC1)C2 , please.
1.2 h

* * *

# Experiment: Total clearance in cynomolgus monkey in fed state at 0.3 mg, iv
# Assay type: ADME, organism-based, Macaca fascicularis
# Reported conditions: in vivo
Measurement type: clearance (mL/min/kg)
Please give a number only; it is taken to be in mL/min/kg.

If you can, please state the reported clearance value of Cc1ncc2n1C(=O)N(C1CCN(C(=O)CCS(=O)(=O)c3ccc4cc(Cl)ccc4c3)CC1)C2 .
9.02

* * *

# Measured on: Coagulation factor X (Homo sapiens, UniProt P00742)
# Sequence (P00742 41-179 limits assumed): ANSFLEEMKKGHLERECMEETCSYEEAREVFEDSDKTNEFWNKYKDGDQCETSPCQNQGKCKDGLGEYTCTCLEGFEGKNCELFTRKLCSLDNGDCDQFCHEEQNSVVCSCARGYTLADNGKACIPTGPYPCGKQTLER
# Sequence (P00742 235-488 limits assumed): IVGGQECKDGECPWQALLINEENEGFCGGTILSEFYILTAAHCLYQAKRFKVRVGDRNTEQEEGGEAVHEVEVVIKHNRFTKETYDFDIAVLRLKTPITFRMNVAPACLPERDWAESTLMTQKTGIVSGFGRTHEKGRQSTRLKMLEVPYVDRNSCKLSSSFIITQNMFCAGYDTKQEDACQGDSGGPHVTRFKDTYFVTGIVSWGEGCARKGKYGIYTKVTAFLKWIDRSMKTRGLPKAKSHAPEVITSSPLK
Measurement type: pIC50
For clarity, pIC50 is expressed as the negative log10 of concentration in mol/L.

Guide cases for pIC50, answers given:
{"Item smiles": "O=C(CCS(=O)(=O)c1ccc2cc(Cl)ccc2c1)N1CCC(c2cnc3n2CCCC3)CC1", "Measurement type": "pIC50", "Reported measurement": 7.64}
{"Item smiles": "Cc1nccn1CCCC1CCN(C(=O)CCS(=O)(=O)c2ccc3cc(Cl)ccc3c2)CC1", "Measurement type": "pIC50", "Reported measurement": 6.34}
{"Item smiles": "Cc1ncc(C2CCN(C(=O)CCS(=O)(=O)c3ccc4cc(Cl)ccc4c3)CC2)[nH]1", "Measurement type": "pIC50", "Reported measurement": 6.92}
{"Item smiles": "CCCc1nccn1C1CCN(C(=O)CCS(=O)(=O)c2ccc3cc(Cl)ccc3c2)CC1", "Measurement type": "pIC50", "Reported measurement": 6.64}
{"Item smiles": "Cn1cncc1C1CCN(C(=O)CCS(=O)(=O)c2ccc3cc(Cl)ccc3c2)CC1", "Measurement type": "pIC50", "Reported measurement": 7.25}

Lab note: next compound to report on.
Name the reported pIC50 value associated with the compound O=C(CCS(=O)(=O)c1ccc2cc(Cl)ccc2c1)N1CCN(c2cccc3nc(CO)cn23)CC1
8.01

* * *

# Experiment: AUC (0 to 24 hrs) in cynomolgus monkey in fed state at 0.3 mg, iv
# Type: ADME, organism-based, Macaca fascicularis
# Design: dose 0.3 mg, time < 24 hr, route intravenous
# Reported conditions: plasma
Measurement type: AUC(0-t) at 24 h
Units required after the number.

Bench note: what AUC(0-t) at 24 h did Cc1ncc2n1C(=O)N(C1CCN(C(=O)CCS(=O)(=O)c3ccc4cc(Cl)ccc4c3)CC1)C2 show?
565 ng·h/mL

* * *

# Experiment: AUC (0 to 24 hrs) in Sprague-Dawley rat in fed state at 0.3 mg, iv
# Assay type: ADME, organism-based
# Set-up: time < 24 hr, dose 0.3 mg, route intravenous
# Reported conditions: plasma
Measurement type: AUC(0-t) at 24 h (ng·h/mL)
Reply with just the number (in ng·h/mL).

Please give the measured AUC(0-t) at 24 h for this molecule: Cc1ncc2n1C(=O)N(C1CCN(C(=O)CCS(=O)(=O)c3ccc4cc(Cl)ccc4c3)CC1)C2
245

* * *

# Experiment: Mean residence time in cynomolgus monkey in fasted state at 3 mg/kg, po
# Type: ADME, organism-based, Macaca fascicularis
# Set-up: dose 3 mg/kg, route oral
# Reported conditions: in vivo
Measurement type: MRT (h)
Write the answer as a number in h, unit excluded.

Need MRT of Cc1ncc2n1C(=O)N(C1CCN(C(=O)CCS(=O)(=O)c3ccc4cc(Cl)ccc4c3)CC1)C2 , thanks.
1.6

* * *

# Experiment: Inhibition of trypsin
Measurement type: Ki

Entry Cc1ncc2n1C(=O)N(C1CCN(C(=O)CCS(=O)(=O)c3ccc4cc(Cl)ccc4c3)CC1)C2 has what Ki?
> 60 µM

* * *

# Experiment: Mean residence time in Sprague-Dawley rat in fed state at 3 mg/kg, po
# Type: ADME, organism-based
# Design: dose 3 mg/kg, route oral
# Reported conditions: in vivo
Measurement type: MRT
Write the quantity with the unit trailing the number.

Give the measured MRT of Cc1ncc2n1C(=O)N(C1CCN(C(=O)CCS(=O)(=O)c3ccc4cc(Cl)ccc4c3)CC1)C2 .
3.6 h

* * *

# Experiment: Cmax in Sprague-Dawley rat in fed state at 3 mg/kg, po
# Assay type: ADME, organism-based
# Design: dose 3 mg/kg, route oral
# Reported conditions: in vivo
Measurement type: Cmax

Name the recorded Cmax for Cc1ncc2n1C(=O)N(C1CCN(C(=O)CCS(=O)(=O)c3ccc4cc(Cl)ccc4c3)CC1)C2 .
145 ng/mL

* * *

Recorded pKa, one value per entry.
# Experiment: Basicity, pKa by titration method
# Type: physicochemical
// keep it numeric: no unit symbol after the value

{"Item smiles": "Cn1cncc1C1CCN(C(=O)CCS(=O)(=O)c2ccc3cc(Cl)ccc3c2)CC1", "pKa": 7.2}
{"Item smiles": "Cc1nc(C)n2c1CN(C1CCN(C(=O)CCS(=O)(=O)c3ccc4cc(Cl)ccc4c3)CC1)C2=O", "pKa": 5.4}
{"Item smiles": "O=C(CCS(=O)(=O)c1ccc2cc(Cl)ccc2c1)N1CCC(c2cnc3ccccn23)CC1", "pKa": 5.9}

// query pKa value for entry Cc1nccn1CCC1CCN(C(=O)CCS(=O)(=O)c2ccc3cc(Cl)ccc3c2)CC1
7.9

Recorded pKa of Cc1ncc(C2CCN(C(=O)CCS(=O)(=O)c3ccc4cc(Cl)ccc4c3)CC2)[nH]1 , please.
7.9
